protocol_text: folding enthalpy; higher = less favourable; fluorescence melt of hairpins on a sequencing array, two-state fit
condition_details: sodium 0.088 M
Provide the reported folding enthalpy of each item.

Asked: Which measured folding enthalpy value corresponds to GCCAGGGGAAACCTTGGC ((((.((....)).)))) ?
Given back: -43.9 kcal/mol

Asked: Another: GAAAGACCGAAAGGTTTC (((..(((....))))))
Given back: -11.5 kcal/mol

Asked: Another: GCGGATTGCCGC ((((....))))
Given back: -11.3 kcal/mol

Asked: Another: GATCAGATCCTGATC ((((((...))))))
Given back: -37 kcal/mol

Asked: Another: GATAGGGGAAACCCTACC (.(((((....))))).)
Given back: -16.8 kcal/mol

Asked: Another: GGTGCAGGAAACCACACC ((((..(....)..))))
Given back: -21.4 kcal/mol

Asked: Another: GATCCGGGCCGGATC ((((((...))))))
Given back: -46.2 kcal/mol

Asked: Another: GCATTTCCGAAAGGATGC (((..(((....))))))
Given back: -21.6 kcal/mol

Asked: Another: GGGTGGGGAAACTCACCC (((((.(....).)))))
Given back: -49.8 kcal/mol

Asked: Another: GACACAGGAAACTGTATC ((.((((....)))).))
Given back: -14.1 kcal/mol

Asked: Another: GGATATGGAAACATGTCC (((.(((....))).)))
Given back: -30.4 kcal/mol

Asked: Another: GCACAGCGAAAGCCGAGC ((.(.((....)).).))
Given back: -12.6 kcal/mol

Asked: Another: GATCACATAAGTGATC ((((((....))))))
Given back: -39.3 kcal/mol

Asked: Another: GTAGCCGAAAGGCTATAC ((((((....)))..)))
Given back: -10.2 kcal/mol

Asked: Another: GGTTCGGGAAACCAAACC ((((.((....)).))))
Given back: -30.3 kcal/mol

Asked: Another: GCAGAGCGAAAGCATTGC (((..((....))..)))
Given back: -17.3 kcal/mol

Asked: Another: GTGGCGGGAAACCGCTAC ((.((((....)))).))
Given back: -19.3 kcal/mol

Asked: Another: GGTATACGAAAGTAAACC (((.(((....))).)))
Given back: -28.4 kcal/mol

###

protocol_text: melting temperature; fluorescence melt of hairpins on a sequencing array, two-state fit, raised by 9.35 °C to match UV melts
condition_details: sodium 0.088 M
measured_metric: Tm (°C)
Provide only the numeric value, understood in °C.

Asked: Which measured Tm value corresponds to GATTCTGAAAAGAATC ((((((....)))))) ?
Given back: 50

Asked: Another: GATCTGCTATCAGATC ((((((....))))))
Given back: 49.6

Asked: Another: GCTCCCGGAAACGGAAGC (((.(((....))).)))
Given back: 50

###

protocol_text: melting temperature; fluorescence melt of hairpins on a sequencing array, two-state fit, raised by 9.35 °C to match UV melts
condition_details: sodium 0.088 M
measured_metric: Tm (°C)
Provide only the numeric value, understood in °C.

Asked: Which measured Tm value corresponds to GCTGGACCGAAAGGTAGC (((..(((....)))))) ?
Given back: 39.5

Asked: Another: GATCGAAATTCGATC ((((((...))))))
Given back: 48.9

Asked: Another: GCGTTGACACGC ((((....))))
Given back: 50.1

Asked: Another: GTTGCACGAAAGTGAAC (((.(((....))))))
Given back: 39.2

Asked: Another: GTACAGGGAAACCTGCAC ((.((((....)))).))
Given back: 39.7

Asked: Another: GATCATAACATGATC ((((((...))))))
Given back: 50.3

Asked: Another: GCCTACGAAAGTACTGGC ((((((....)))..)))
Given back: 40.2

Asked: Another: GACCTCGGAAACGAGATC ((.((((....)))).))
Given back: 40.5

Asked: Another: GATCCTTGGCAGGATC ((((((....))))))
Given back: 49.4

Asked: Another: GCATAGCGAAAGCTCTGC (((.(((....))).)))
Given back: 49.4

Asked: Another: GATCAGAGGCCTGATC ((((((....))))))
Given back: 48.5

Asked: Another: GGAATTCGAAAGAATCC (((.(((....))))))
Given back: 39

###

protocol_text: melting temperature; fluorescence melt of hairpins on a sequencing array, two-state fit, raised by 9.35 °C to match UV melts
condition_details: sodium 0.088 M
Provide the reported Tm of each item.
Provide only the numeric value, understood in °C.

Asked: Which measured Tm value corresponds to GCGGTCTCCCGC ((((....)))) ?
Given back: 55.5

Asked: Another: GATAGGCGAAAGCCAATC (((.(((....))).)))
Given back: 43

Asked: Another: GTACAAGAAATTGTAC ((((((....))))))
Given back: 45

Asked: Another: GATCAGGGGACTGATC ((((((....))))))
Given back: 53.8

Asked: Another: GATCGACTCATCGATC ((((((....))))))
Given back: 51.8

Asked: Another: GGCGCTGGAAACGGCGTC (.(((.(....).))).)
Given back: 54.3

Asked: Another: GATACGCGAAAGCGAATC (((.(((....))).)))
Given back: 49.4

Asked: Another: GGGGTCGAAAGACCGCCC ((((((....)))..)))
Given back: 52.7

Asked: Another: GTTCGAGAAATCGAAC ((((((....))))))
Given back: 54.9

###

protocol_text: folding enthalpy; higher = less favourable; fluorescence melt of hairpins on a sequencing array, two-state fit
condition_details: sodium 0.088 M
Label rule, in plain words: folding enthalpy of -20 kcal/mol and up is yes (1), under -20 kcal/mol is no (0).

Asked: Hi team, for GCAGGGCGAAAGCCTAGC ((..(((....)))..)) , is the recorded folding enthalpy at or above -20 kcal/mol?
Given back: yes (1)

Asked: Another: GCGACTGGAAACAACCGC (((..((....))..)))
Given back: yes (1)

Asked: Another: GATCGTGACTACGATC ((((((....))))))
Given back: no (0)

Asked: Another: GTGTACGAAAGTAAGCAC ((((((....)))..)))
Given back: no (0)

Asked: Another: CGGTACGGAAACGTCCCG (((.(((....))).)))
Given back: no (0)

Asked: Another: GGGACGCCGAAAGGCCCC (((..(((....))))))
Given back: yes (1)

Asked: Another: GCTTACGAAAGTAGAGC ((((((....))).)))
Given back: no (0)

Asked: Another: GTCCAGCGAAAGCTGAC (((.(((....))))))
Given back: yes (1)

###

protocol_text: melting temperature; fluorescence melt of hairpins on a sequencing array, two-state fit, raised by 9.35 °C to match UV melts
condition_details: sodium 0.088 M
measured_metric: Tm (°C)
Provide only the numeric value, understood in °C.

Asked: Which measured Tm value corresponds to GTGTACGAAAGTATCCAC ((((((....)))..))) ?
Given back: 26.4

Asked: Another: GGACCTGGAAACGGGTCC (((((.(....).)))))
Given back: 58.3

Asked: Another: CGTAGCGGAAACGCACG (((.(((....))))))
Given back: 53.1

Asked: Another: GAACCCGAAAGGGCGTTC ((((((....)))..)))
Given back: 33.7

Asked: Another: GCGTCTCCGAAAGGACGC (((..(((....))))))
Given back: 56.8

Asked: Another: GCACGGCGAAAGCCAGGC ((..(((....)))..))
Given back: 55

Asked: Another: GCGTAAACGAAAGTTCGC (((..(((....))))))
Given back: 48.2

Asked: Another: GAGCTGGCGAAAGCCCTC (((..(((....))))))
Given back: 36.6

Asked: Another: GATCAGCTAGCTGATC ((((((....))))))
Given back: 62.1

Asked: Another: GCCCCGGGAAACCGGAGC ((.((((....)))).))
Given back: 56.1

Asked: Another: CGTTTTCGGAAACGAACG (((..(((....))))))
Given back: 37

Asked: Another: GATCACTCCCGTGATC ((((((....))))))
Given back: 55.8

Asked: Another: GATCAGATCGCTGATC ((((((....))))))
Given back: 48.9

Asked: Another: GATCCTGACGAGGATC ((((((....))))))
Given back: 56.9

Asked: Another: GTAGTTGGAAACAACCAC ((.((((....)))).))
Given back: 32.6

Asked: Another: GATCTCTAGCGAGATC ((((((....))))))
Given back: 49.9

Asked: Another: GCTTCCGAAAGGATAAGC ((((((....)))..)))
Given back: 44.2

Asked: Another: GATACAGGAAACTGTACC (.(((((....))))).)
Given back: 31.1

Asked: Another: GCGTGTTACGC ((((...))))
Given back: 61.6

Asked: Another: GATCTTAGTCAAGATC ((((((....))))))
Given back: 42.2

Asked: Another: GATCTGTGAGCAGATC ((((((....))))))
Given back: 55

Asked: Another: GATCATGGAAACATGACC (.(((((....))))).)
Given back: 36.1

Asked: Another: GGTGCAGGAAACCACACC ((((..(....)..))))
Given back: 34.9

Asked: Another: GTATAGCGAAAGCTGTAC (((.(((....))).)))
Given back: 51.1

Asked: Another: GCGGAGCGAAAGCTTGGC ((..(((....)))..))
Given back: 39.4

Asked: Another: GTGCTACGAAAGTAACAC (((.(((....))).)))
Given back: 46.7

Asked: Another: GCCCGCGAAAGCGCTGGC ((((((....)))..)))
Given back: 58.5

Asked: Another: GGGGTAGGAAACTGTCCC (((..((....))..)))
Given back: 36.2

Asked: Another: GACGCGCGAAAGCGGTC (((.(((....))))))
Given back: 55

Asked: Another: CGATGGAAACATCG (((((....)))))
Given back: 52.6

Asked: Another: GGGTCACGAAAGTGCCCC (((.(((....))).)))
Given back: 63

Asked: Another: GGTTAGGAAACTAACC ((((((....))))))
Given back: 52.3

Asked: Another: GGCCGCGAAAGCGGGGCC ((((((....)))..)))
Given back: 63.6

Asked: Another: GCAGGGCGAAAGCCACGC ((..(((....)))..))
Given back: 52.2

Asked: Another: GTGCACCGAAAGGTCCAC (((.(((....))).)))
Given back: 45.2

Asked: Another: GATCGCTCTGCGATC ((((((...))))))
Given back: 68.5

Asked: Another: GAGAGGCGAAAGCCGCTC (((.(((....))).)))
Given back: 66.1

Asked: Another: GCGCTGCGAAAGCTCCGC (((..((....))..)))
Given back: 49.4

Asked: Another: GATCCGGACCCGGATC ((((((....))))))
Given back: 61.1
